Measured values drawn from the supplement of paper PMC9170038 for this set.

Tested on: K4 kissing-loop RNA reporter;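 further: bound reporter read as fluorescence of individual clusters on recovered sequencing chips by microscopy, with normalized cluster intensities fitted with a binding model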
Experiment: apparent KD of K4 kissing-loop reporter; higher = weaker reporter binding
Conditions: Eterna round: R107; input ligand: FMN 200 uM
Hi all, reminder that labels come from apparent KD of K4 kissing-loop reporter, split as bin 1: < 200 nM; bin 2: ≥ 200 nM and < 600 nM; bin 3: ≥ 600 nM

residue-sequence: AGUCCACUCUAAAGAGUGGACCUAAGGGAUACCAGUGAUGUUGGUCACCCUUGGCAGCCCACUGUCAUCGAUAAAGAUGGCAGGA
classification: bin 1
--
residue-sequence: GCAGUGAUGUUGCAACCGCGUACGAUGCCUCGAGGACCGGUACGGCCGCCACUCGUCCUGGUUCAGGAGCUACAGACAUAGCUCA [theeternabot_sameState_KL_Trp_A_2]
classification: bin 2
--
residue-sequence: CCUGAUCCUAGUGAUGUUAGGUCCAACGGCCGAGGACCGGUACGGCCGCCACUCGUCAAUUGGAAACAGCCCACGGGCACCGGGU [theeternabot_sameState_KL_Trp_A_19]
classification: bin 3
--
residue-sequence: AGCUGUGGCAGAAGGAGCGACAGUUAUUCUGAUAGUACUCUGAGUGAUGUUCAGAACGACUGUCAGGUAGGUCGCUGUCACAGCU [#01 K4 Arginine B Exclusion]
classification: bin 1
--
residue-sequence: UUAUGUUUAGUUCACCCAGUGAUGUUGGAAGGAGCGUGCGAAAGCACAGGUAGGUCGCCAACCUUAAAGUGUCUUGAUUAUCUAA [JR_Nu_ExcArginiA_Sub029]
classification: bin 2
--
residue-sequence: GGGCUAUAGUGAUGUUAUUGUCUAAACGAUACCAGUUCACCCGUGAACCCUUGGCAGCGUGGUGUAACCUAUCCUCGUUGCACUG [theeternabot_sameState_KL_Theo_A_28]
classification: bin 3
--
residue-sequence: AAAUAGAUCAGUCACCCAGUGAUGUUGGAAGGAGCGUGCGAAAGCACAGGUAGGUCGCCAAAAUAAAAUUGGCUGAUCAAAAUAA
classification: bin 2
--
residue-sequence: UAUACUAGACAAGAGAGAAUUCUCUCAAGAGAGGAUAUCCGAAUUCGGAGAAGGCUCUCUCAGUGAUGUUGGGUAUAGUCUAGAA [AK7 SS FMN A]
classification: bin 2
--
residue-sequence: AUGUUGAGCGGAAGGAGCGGCUGAGCCAGUGAUGUUGGUUAAUCCAAGUGAUGUUGGAAAAGCCAGGUAGGUCGCCGUUUUACGU [whbob_SS_Arginine_B_2t145]
classification: bin 3
--
residue-sequence: UUUAAAUAUAGUGAUGUUAUAUAACAAUGACGAGGACCGGUACGGCCGCCACUCGAGAGAGAUAAUGGUCGUUAGAAUCUAACGC [AstrosSSTryA#5]
classification: bin 3
--
residue-sequence: AGUCCACUCUAAAGAGUGGACCUAAGGGAUACCAGUGAUGUUGGUCACCCUUGGCAGCCCUCUGUCAUCGAUAAAGAUGGCAGGA
classification: bin 1
--
residue-sequence: AAUCAAUACAGAAGGAGCGUGACAAUUACUAUUGAAUUAGGAGCUAGUGAUGUUAGCAUAACACAGGUAGGUCGCUGUACAUUUA [JR_SSArginiB_Sub012]
classification: bin 1
